Quick record of MIC values for Str. pyogenes A-9604.

Compound: CC1=C(C(=O)O)N2C(=O)[C@H](C(C)(C)O)[C@H]2S1 (relative stereo)
Qualifier sign: =
MIC, µg/mL: 8

Compound: CC[C@@H](O)[C@H]1C(=O)N2C(C(=O)O)=C(C)S[C@H]12 (relative stereo)
Qualifier sign: =
MIC, µg/mL: 16

Compound: CC1=C(C(=O)O)N2C(=O)[C@@H]([C@@H](C)O)[C@H]2S1 (relative stereo)
Qualifier sign: =
MIC, µg/mL: 2

Compound: O=C(O)C1=C(Cc2cccs2)SC2CC(=O)N12 (centres unmarked)
Qualifier sign: =
MIC, µg/mL: 0.03

Compound: O=C(O)C1=C(Cc2cscn2)SC2CC(=O)N12 (centres unmarked)
Qualifier sign: >
MIC, µg/mL: 125

Compound: CC1=C(C(=O)O)N2C(=O)[C@H]([C@@H]3COC(C)(C)O3)[C@H]2S1 (relative stereo)
Qualifier sign: =
MIC, µg/mL: 63

Compound: CC(N)CCC1=C(C(=O)O)N2C(=O)C[C@H]2S1 (some centres unmarked)
Qualifier sign: =
MIC, µg/mL: 0.06

Compound: O=C(O)C1=C(C2CCC2)SC2CC(=O)N12 (centres unmarked)
Qualifier sign: =
MIC, µg/mL: 1

Compound: Cn1cc(C2=C(C(=O)O)N3C(=O)CC3S2)cn1 (centres unmarked)
Qualifier sign: =
MIC, µg/mL: 0.5

Compound: CC[C@H](O)[C@H]1C(=O)N2C(C(=O)O)=C(C)S[C@H]12 (relative stereo)
Qualifier sign: >
MIC, µg/mL: 125

Compound: CSCC1=C(C(=O)O)N2C(=O)C[C@H]2S1
Qualifier sign: =
MIC, µg/mL: 0.25

Compound: O=C(O)C1=C(Cc2c[nH]c3ccccc23)SC2CC(=O)N12 (centres unmarked)
Qualifier sign: =
MIC, µg/mL: 0.06

Compound: CC1=C(C(=O)O)N2C(=O)[C@@H](CO)[C@H]2S1 (relative stereo)
Qualifier sign: =
MIC, µg/mL: 16

Compound: NCc1ccc(CC2=C(C(=O)O)N3C(=O)CC3S2)cc1 (centres unmarked)
Qualifier sign: =
MIC, µg/mL: 0.06

Compound: O=C(O)C1=C(CCC[N+](=O)[O-])SC2CC(=O)N12 (centres unmarked)
Qualifier sign: =
MIC, µg/mL: 0.25

Compound: CC1=C(C(=O)O)N2C(=O)[C@H]([C@@H](C)N)[C@H]2S1 (relative stereo)
Qualifier sign: >
MIC, µg/mL: 63

Compound: CCC(N)CC1=C(C(=O)O)N2C(=O)CC2S1 (centres unmarked)
Qualifier sign: =
MIC, µg/mL: 0.25

Compound: CSC(SC)C1=C(C(=O)O)N2C(=O)CC2S1 (centres unmarked)
Qualifier sign: =
MIC, µg/mL: 4

Compound: O=C(O)C1=C(COc2ccccc2)S[C@@H]2CC(=O)N12
Qualifier sign: =
MIC, µg/mL: 0.5

Compound: NCC1CC1C1=C(C(=O)O)N2C(=O)CC2S1 (centres unmarked)
Qualifier sign: =
MIC, µg/mL: 0.03

Compound: C[C@@H](O)[C@H]1C(=O)N2C(C(=O)O)=C(CCCCN)S[C@H]12 (relative stereo)
Qualifier sign: =
MIC, µg/mL: 0.03

Compound: CC(N)=NCC1=C(C(=O)O)N2C(=O)CC2S1 (centres unmarked)
Qualifier sign: =
MIC, µg/mL: 2

Compound: CSc1nnc(C2=C(C(=O)O)N3C(=O)CC3S2)o1 (centres unmarked)
Qualifier sign: =
MIC, µg/mL: 125

Compound: O=C(O)C1=C(CCCNO)SC2CC(=O)N12 (centres unmarked)
Qualifier sign: =
MIC, µg/mL: 0.06

Compound: CCCC(N)C1=C(C(=O)O)N2C(=O)CC2S1 (centres unmarked)
Qualifier sign: =
MIC, µg/mL: 0.016

Compound: CC1=C(C(=O)O)N2C(=O)[C@H](CNC=O)[C@H]2S1 (relative stereo)
Qualifier sign: =
MIC, µg/mL: 0.5

Compound: Cc1cc(C)n(CC2=C(C(=O)O)N3C(=O)CC3S2)n1 (centres unmarked)
Qualifier sign: =
MIC, µg/mL: 0.5

Compound: NCCCCC1=C(C(=O)O)N2C(=O)CC2S1 (centres unmarked)
Qualifier sign: =
MIC, µg/mL: 0.25

Compound: CC1=C(C(=O)O)N2C(=O)C(C(C)(C)O)C2S1 (centres unmarked)
Qualifier sign: =
MIC, µg/mL: 4

Compound: O=C([O-])C1=C(c2cccnc2)S[C@@H]2CC(=O)N12.[Na+] [Example 53, Sodium 2-(3-Pyridyl)penem-3-carboxylate]
Qualifier sign: =
MIC, µg/mL: 0.13

Compound: COCOC[C@@H](O)[C@H]1C(=O)N2C(C(=O)O)=C(C)S[C@H]12 (relative stereo)
Qualifier sign: =
MIC, µg/mL: 32

Compound: NCCCCCC1=C(C(=O)O)N2C(=O)C[C@H]2S1
Qualifier sign: =
MIC, µg/mL: 0.008

Compound: CCOP(=O)(CCC1=C(C(=O)O)N2C(=O)CC2S1)OCC (centres unmarked)
Qualifier sign: >
MIC, µg/mL: 125

Compound: NCC1=C(C(=O)O)N2C(=O)CC2S1 (centres unmarked)
Qualifier sign: =
MIC, µg/mL: 4

Compound: O=C(O)C1=C(CCCCN2C(=O)c3ccccc3C2=O)SC2CC(=O)N12 (centres unmarked)
Qualifier sign: =
MIC, µg/mL: 0.25

---

- Measurement description: Mouse blood levels after intramuscular administration
- Type: in vivo
- Assay setup: 120 minutes after IM 40 mg/kg, average of 6 mice, read-out: Mouse blood level
- Protocol: Mouse blood levels after intramuscular administration of representative compounds of the present invention were determined and are reported in the table below.
Listed here are compounds together with their documented concentration at 2 h.
Measurement label: concentration at 2 h

Compound: NCCCC1=C(C(=O)O)N2C(=O)CC2S1 (stereo not drawn) [Example 22, Sodium 2-Aminopropylpenem-3-carboxylate]
Test result: 3100 ng/mL

Compound: NCCCCC1=C(C(=O)O)N2C(=O)CC2S1 (stereo not drawn)
Test result: < 3000 ng/mL

Compound: C[C@@H](O)[C@H]1C(=O)N2C(C(=O)O)=C([C@H]3C[C@H](N)C3)S[C@H]12 (relative stereo)
Test result: 1000 ng/mL

Compound: NCCOCC1=C(C(=O)O)N2C(=O)CC2S1 (stereo not drawn)
Test result: < 3100 ng/mL

Compound: N[C@H]1C[C@@H](C2=C(C(=O)O)N3C(=O)C[C@H]3S2)C1
Test result: < 5000 ng/mL

Compound: NCCC1=C(C(=O)O)N2C(=O)CC2S1 (stereo not drawn)
Test result: < 3100 ng/mL

---

Listed here are molecules together with their documented MIC.
- System: Staph. aureus (Pen-Res) A-9606
- Measurement description: MIC, tube dilution, Staphylococcus aureus A9606 (Pen-Res)
- Format: cell-based
- Assay setup: Staphylococcus aureus, Staph. aureus A9606 (Pen-Res); overnight 37° C.; read-out: Minimum Inhibitory Concentration (M.I.C.)

Molecule: CC(=O)NCCC1=C(C(=O)O)N2C(=O)CC2S1 (centres unmarked)
Unit name: µg/mL
Qualifier sign: =
MIC: 1
//
Molecule: CCC(N)CC1=C(C(=O)O)N2C(=O)CC2S1 (centres unmarked)
Unit name: µg/mL
Qualifier sign: >
MIC: 32
//
Molecule: O=C(O)C1=C(c2ccco2)SC2CC(=O)N12 (centres unmarked)
Unit name: µg/mL
Qualifier sign: =
MIC: 8
//
Molecule: NCCC1=C(C(=O)O)N2C(=O)CC2S1 (centres unmarked)
Unit name: µg/mL
Qualifier sign: =
MIC: 8
//
Molecule: CSC1C(=O)N2C(C(=O)O)=C(C)SC12 (centres unmarked)
Unit name: µg/mL
Qualifier sign: =
MIC: 9
//
Molecule: O=C(O)C1=C(CCC[N+](=O)[O-])SC2CC(=O)N12 (centres unmarked)
Unit name: µg/mL
Qualifier sign: =
MIC: 32
//
Molecule: CC1=C(C(=O)O)N2C(=O)[C@H]([C@@H](C)N)[C@H]2S1 (relative stereo)
Unit name: µg/mL
Qualifier sign: >
MIC: 63
//
Molecule: C[C@@H](O)[C@H]1C(=O)N2C(C(=O)O)=C(CCCCN)S[C@H]12 (relative stereo)
Unit name: µg/mL
Qualifier sign: =
MIC: 0.13

---

Listed here are compounds together with their documented MIC.
- Tested on: Staph. aureus (Meth-Res) A-15097
- Measurement description: MIC, tube dilution, Staphylococcus aureus A15097 (Meth-Res)
- Format: cell-based
- Assay setup: Staphylococcus aureus, Staph. aureus A15097 (Meth-Res); overnight 37° C.; read-out: Minimum Inhibitory Concentration (M.I.C.)
Measurement label: MIC

Compound: CC1=C(C(=O)O)N2C(=O)[C@H](CNC=O)[C@H]2S1 (relative stereo) [Example 92]
Test result: 32 µg/mL
//
Compound: CC(N)=NCC1=C(C(=O)O)N2C(=O)CC2S1 (stereo not drawn) [16 (5)]
Test result: 63 µg/mL
//
Compound: O=C(O)C1=C(c2ccco2)SC2CC(=O)N12 (stereo not drawn) [Preparation 13, 2-(2'-Furyl)penem-3-carboxylic Acid]
Test result: 16 µg/mL
//
Compound: COCOC[C@@H](O)[C@H]1C(=O)N2C(C(=O)O)=C(C)S[C@H]12 (relative stereo) [Example 106]
Test result: > 63 µg/mL
//
Compound: O=C(O)C1=C(CCCNO)SC2CC(=O)N12 (stereo not drawn) [Example 26]
Test result: 125 µg/mL
//
Compound: O=C(O)C1=C(C2CC2)SC2CC(=O)N12 (stereo not drawn) [Example 14, 2-Cyclopropylpenem-3-carboxylic Acid]
Test result: 2 µg/mL
//
Compound: CC1=C(C(=O)O)N2C(=O)[C@H](C(C)(C)O)[C@H]2S1 (relative stereo) [Example 32]
Test result: 63 µg/mL
//
Compound: NCCCCC1=C(C(=O)O)N2C(=O)CC2S1 (stereo not drawn) [Example 73]
Test result: 16 µg/mL
//
Compound: NC=NCC1=C(C(=O)O)N2C(=O)CC2S1 (stereo not drawn) [16 (6)]
Test result: 63 µg/mL
//
Compound: C[C@@H](O)[C@H]1C(=O)N2C(C(=O)O)=C(COCCN)S[C@H]12 (relative stereo) [66,96]
Test result: 1 µg/mL
//
Compound: NCC[S+]([O-])CC1=C(C(=O)O)N2C(=O)C[C@H]2S1 (stereo partly drawn) [Example 101]
Test result: 63 µg/mL
//
Compound: NCCOCC1=C(C(=O)O)N2C(=O)CC2S1 (stereo not drawn) [Example 86]
Test result: 125 µg/mL
//
Compound: NCc1ccc(CC2=C(C(=O)O)N3C(=O)CC3S2)cc1 (stereo not drawn) [Example 85]
Test result: > 63 µg/mL
//
Compound: NCC(=O)OCC1=C(C(=O)O)N2C(=O)CC2S1 (stereo not drawn) [Example 81]
Test result: 8 µg/mL
//
Compound: NC1CC1C1=C(C(=O)O)N2C(=O)CC2S1 (stereo not drawn) [Example 99]
Test result: 32 µg/mL
//
Compound: CC(N)CCC1=C(C(=O)O)N2C(=O)C[C@H]2S1 (stereo partly drawn) [Example 80]
Test result: > 63 µg/mL
//
Compound: CC1=C(C(=O)O)N2C(=O)[C@H]([C@@H](C)O)[C@H]2S1 (relative stereo) [Example 60]
Test result: 8 µg/mL
//
Compound: C[C@@H](O)[C@H]1C(=O)N2C(C(=O)O)=C(CCCCN)S[C@H]12 (relative stereo) [Example 64]
Test result: 0.25 µg/mL
